# Tested on: IGROV1 ovarian
# METHOD NOTES: NCI-60 one-dose screen, 48 h (100 = growth as untreated, 0 = no growth, -100 = all killed)
# EXPERIMENTAL CONTEXT: 10 µM unless noted
# Procedure: Growth inhibition of the IGROV1 human tumor cell line is measured as a screen for anti-cancer activity. Cells are grown in 96 well plates and exposed to the test compound for 48 hours. Compounds are tested at a single concentration, which is 10^-5 M for most compounds. The reported endpoint is percent growth (GI% or GIPRCNT), where numbers from 0 - 100% represent growth inhibition, and numbers from -100% - 0 represent cell death. For example, a value of 40 represents 60% growth inhibition. […]
The panel holds about 83,000 compounds, 20% with a hit somewhere; the sample as a whole holds those more often.
Class (by growth) -- Low: < 10%; Medium: ≥ 10% and < 70%; High: ≥ 70%

[[record]]
compound = "CC(=O)C1=C(C)NC(SCc2nnc(-c3ccc(C)cc3)o2)=NC1c1ccc(F)cc1 (centres undefined)"
category_label = "High"

[[record]]
compound = "CC(C)[C@@H](C)/C=C/[C@@H](C)[C@H]1CCC2=C3C=CC4=CC(=O)CC[C@]4(C)[C@H]3CC[C@@]21C"
category_label = "High"

[[record]]
compound = "COc1cc(Nc2ncc(F)c(Nc3ccc4c(n3)NC(=O)C(C)(C)O4)n2)cc(OC)c1OC"
category_label = "Low"

[[record]]
compound = "CC(CCCC(=O)O)c1ccoc1 (centres undefined)"
category_label = "High"

[[record]]
compound = "CCN(CC)CCCC(C)Nc1cc(-c2ccc(C(F)(F)F)cc2)c(C#N)c2nc3ccccc3n12 (centres undefined)"
category_label = "Medium"

[[record]]
compound = "CC(N)C(Cc1ccccc1)c1ccc(Cl)cc1 (centres undefined)"
category_label = "High"

[[record]]
compound = "C/C=C/C=N/NC(=S)Nc1ccccc1"
category_label = "High"

[[record]]
compound = "COc1cc(CCc2cc(NC(=O)c3ccc(N4C[C@@H](C)N[C@@H](C)C4)cc3)n[nH]2)cc(OC)c1"
category_label = "Medium"

[[record]]
compound = "O=C1C=CC2(NN=C(c3ccccc3)N2c2ccc(Cl)cc2)c2cccc(O)c21 (centres undefined)"
category_label = "Medium"

[[record]]
compound = "COc1ccc(S(=O)(=O)N(C(C)=O)c2ccccc2/C=C/c2cc[n+]([O-])cc2)cc1"
category_label = "Medium"

[[record]]
compound = "C1=C\\COCc2cc(ccc2OCCN2CCCC2)Nc2nccc(n2)-c2cccc(c2)COC/1"
category_label = "Low"

[[record]]
compound = "CN(C)C/C=C/C(=O)Nc1cc2c(Nc3ccc(F)c(Cl)c3)ncnc2cc1O[C@H]1CCOC1"
category_label = "Low"

[[record]]
compound = "CN1CCN(CCOc2cc(OC3CCOCC3)c3c(Nc4c(Cl)ccc5c4OCO5)ncnc3c2)CC1"
category_label = "Low"

[[record]]
compound = "CN1CCN(c2nc(C3=C(c4c[nH]c5ccccc45)C(=O)NC3=O)c3ccccc3n2)CC1"
category_label = "High"

[[record]]
compound = "C[C@@H](N)c1ccc(C(=O)Nc2ccnc3[nH]ccc23)cc1"
category_label = "Medium"

[[record]]
compound = "COc1ccc(-n2c(=O)c3ccccc3n(Cc3ccc(C(=O)NO)cc3)c2=O)cc1"
category_label = "Medium"

[[record]]
compound = "Cc1cc2c(-c3nc4ccccn4c3NC3CCCCC3)c(O)c(O)cc2c(O)c1-c1c(C)cc2c(-c3nc4ccccn4c3NC3CCCCC3)c(O)c(O)cc2c1O"
category_label = "Medium"

[[record]]
compound = "Cc1cn(-c2cc(NC(=O)c3ccc(C)c(Nc4nccc(-c5cccnc5)n4)c3)cc(C(F)(F)F)c2)cn1"
category_label = "Low"

[[record]]
compound = "CCNC(=O)C#Cc1ccc2c(C(=Nc3ccc(CN(C)C)cc3)c3ccccc3)c(O)[nH]c2c1"
category_label = "Low"

[[record]]
compound = "Nc1c2c(c(O)c3c1=C(CO)C=N3)=NCCS2=O (centres undefined)"
category_label = "Low"

[[record]]
compound = "Cc1cc2c3c(cccc3c1)C(=O)c1ccccc1-2"
category_label = "High"

[[record]]
compound = "CCCC(=O)OCC1OC(n2cnc3c(=S)nc[nH]c32)C(OC(=O)CCC)C1OC(=O)CCC (centres undefined)"
category_label = "Medium"

[[record]]
compound = "CC[n+]1c(/C=C/C=C2\\N(C)c3ccccc3C2(C)C)sc2ccccc21"
category_label = "Medium"

[[record]]
compound = "CCCCn1c(C)nc2cc(Nc3nc(N4CCCCC4)nc4nc[nH]c34)ccc21"
category_label = "Medium"

[[record]]
compound = "CCC1(/C=N/NC(N)=S)NC(=O)NC1=O (centres undefined)"
category_label = "High"

[[record]]
compound = "CN(C)CCOC(=O)Nc1nc2ccc(Sc3ccccc3)cc2[nH]1"
category_label = "Medium"

[[record]]
compound = "Nc1ccc(S(=O)(=O)O)c2cc(S(=O)(=O)O)cc(O)c12"
category_label = "High"

[[record]]
compound = "C/C(=C(/c1ccc(Cl)cc1)c1ccc(OCCN2CCCCCC2)cc1)c1ccccc1"
category_label = "High"

[[record]]
compound = "O=C(Nc1ccc(N=Nc2ccccc2)cc1)c1cccc2ccccc12"
category_label = "High"

[[record]]
compound = "C=CCCCOC1[C@H](OCc2ccccc2)C(OCc2ccccc2)C(OC)O[C@@H]1CNC(=O)c1cccc(I)c1 (some centres undefined)"
category_label = "Medium"

[[record]]
compound = "CO[C@@H](C)Cn1c(=O)n(C)c2cnc3ccc(-c4cncc(C(C)(C)O)c4)cc3c21"
category_label = "Low"

[[record]]
compound = "C=C1[C@@H](O)C[C@H]2C(C)(C)C[C@H](Cl)C[C@]2(C)[C@H]1C[C@H](O)[C@H]1CC(=O)NC1=O"
category_label = "Low"

[[record]]
compound = "C=CC[n+]1c(/C=C/C=C2\\N(C)c3ccccc3C2(C)C)sc2ccc(OC)cc21"
category_label = "Medium"

[[record]]
compound = "CNC(=O)c1cc(Oc2ccc(NC(=O)Nc3ccc(Cl)c(C(F)(F)F)c3)c(F)c2)ccn1"
category_label = "Low"

[[record]]
compound = "N#Cc1c(C(F)(F)F)cc(Nc2ccc3nc(NCCN4CCCC4)oc3c2)n2c1nc1ccccc12"
category_label = "High"

[[record]]
compound = "C#Cc1cccc(Nc2ncnc3cc(OCCOC)c(OCCOC)cc23)c1"
category_label = "Low"

[[record]]
compound = "O=C1/C(=C\\c2cccc(OCCCCCOc3ccc(Cl)cc3)c2)N=C2SCCCN12"
category_label = "High"

[[record]]
compound = "CCN1CCN(Cc2ccc(-c3cc4c(N[C@H](C)c5ccccc5)ncnc4[nH]3)cc2)CC1"
category_label = "Low"


###

# Tested on: LOX IMVI melanoma
# METHOD NOTES: NCI-60 one-dose screen, 48 h
# EXPERIMENTAL CONTEXT: 10 µM unless noted
This is part of a sample that, as a whole, favours compounds with a hit. Of some 83,000 tested, about 20% had one in any assay. The source made the active and inactive calls. How the source made its calls: active means growth percent below 10; inactive means the rest.
Labels: TRUE (active), FALSE (inactive)

[[record]]
molecule = "CC[C@H](Nc1ncnc2nc[nH]c12)c1nc2cccc(F)c2c(=O)n1-c1ccccc1"
target_desc = "LOX IMVI melanoma"
category_label = "FALSE"

[[record]]
molecule = "CCCS(=O)(=O)Nc1ccc(F)c(C(=O)c2c[nH]c3ncc(-c4ccc(Cl)cc4)cc23)c1F"
target_desc = "LOX IMVI melanoma"
category_label = "FALSE"

[[record]]
molecule = "CCCCCCCC12Cc3ccccc3C1=Nc1c(c3ccccc3n1C)C2=O (stereo not given)"
target_desc = "LOX IMVI melanoma"
category_label = "FALSE"

[[record]]
molecule = "O=C(CNc1nc2ccccc2s1)Nc1ccc(-c2nc3ccccc3s2)cc1"
target_desc = "LOX IMVI melanoma"
category_label = "FALSE"

[[record]]
molecule = "COc1ccc(Nc2ncccc2NC(=O)c2cn(Cc3cccc(Oc4ccccc4)c3)nn2)cc1"
target_desc = "LOX IMVI melanoma"
category_label = "FALSE"

[[record]]
molecule = "CCCCCCCCCCCC[n+]1ccccc1"
target_desc = "LOX IMVI melanoma"
category_label = "TRUE"

[[record]]
molecule = "O=C(NO)c1ccc(Cn2c(=O)n(-c3ccccc3F)c(=O)c3ccccc32)cc1"
target_desc = "LOX IMVI melanoma"
category_label = "TRUE"

[[record]]
molecule = "COC(=O)[C@]12CC[C@@H](C)[C@H](C)[C@@H]1C1=CC[C@@H]3[C@@]4(C)C(c5cnco5)=C[C@@](C)(CO)C4=CC[C@@]3(C)[C@]1(C)CC2"
target_desc = "LOX IMVI melanoma"
category_label = "FALSE"

[[record]]
molecule = "O=C(Nc1cn[nH]c1-c1nc2ccc(CN3CCOCC3)cc2[nH]1)NC1CC1"
target_desc = "LOX IMVI melanoma"
category_label = "TRUE"

[[record]]
molecule = "COc1ccc(-c2ccc3c(N4CCOC[C@@H]4C)nc(N4CCOC[C@@H]4C)nc3n2)cc1CO"
target_desc = "LOX IMVI melanoma"
category_label = "TRUE"

[[record]]
molecule = "CN1CCN(c2nc(NCCNc3ccnc4cc(Cl)ccc34)c3ccccc3n2)CC1"
target_desc = "LOX IMVI melanoma"
category_label = "TRUE"

[[record]]
molecule = "O=c1[nH]ccc2c(S(=O)(=O)N3CCCNCC3)cccc12"
target_desc = "LOX IMVI melanoma"
category_label = "FALSE"

[[record]]
molecule = "COc1ccc(-c2cc3c(C)nc(N)nc3n(C3CCC(OCCO)CC3)c2=O)cn1 (stereo not given)"
target_desc = "LOX IMVI melanoma"
category_label = "TRUE"

[[record]]
molecule = "CCOC(=O)C1=C(C)N=C2Sc3cccc(OC)c3N2[C@H]1c1ccccn1"
target_desc = "LOX IMVI melanoma"
category_label = "FALSE"

[[record]]
molecule = "COc1cc(NCCCN)c2ncccc2c1"
target_desc = "LOX IMVI melanoma"
category_label = "FALSE"

[[record]]
molecule = "O=C1C=CC2(NN=C(c3ccccc3)N2c2cccc(Cl)c2)c2cccc(O)c21 (stereo not given)"
target_desc = "LOX IMVI melanoma"
category_label = "TRUE"

[[record]]
molecule = "CN(N)c1nc2sc3c(c2c(=O)[nH]1)CCCC3"
target_desc = "LOX IMVI melanoma"
category_label = "FALSE"

[[record]]
molecule = "COc1ccc2c(c1OC)C(=O)O[C@@H]2[C@H]1c2c(c(C#CC#Cc3ccc(F)c(F)c3)c3c(c2OC)OCO3)CCN1C"
target_desc = "LOX IMVI melanoma"
category_label = "FALSE"

[[record]]
molecule = "Nc1c(C(=O)c2ccccc2)sc2nc(-c3cccs3)cc(-c3cccs3)c12"
target_desc = "LOX IMVI melanoma"
category_label = "FALSE"

[[record]]
molecule = "O=C(Nc1nc2cccc(-c3ccc(CN4CCS(=O)(=O)CC4)cc3)n2n1)C1CC1"
target_desc = "LOX IMVI melanoma"
category_label = "FALSE"

